Could you please report measured melting point for the items listed next?

Okay, here is my list. What is melting point for each of these?
1. COc1cc(/C=C2\SC(=O)N(Cc3c4ccccc4nc4ccccc34)C2=O)ccc1OCC(=O)Nc1cc(C(F)(F)F)cc(C(F)(F)F)c1 [Compound 12g]
2. COc1cc(/C=C2\SC(=O)N(Cc3c4ccccc4nc4ccccc34)C2=O)ccc1OCC(=O)Nc1ccc([N+](=O)[O-])cc1 [Compound 12d]
3. O=C(COc1ccc(/C=C2\SC(=O)N(Cc3c4ccccc4nc4ccccc34)C2=O)cc1)Nc1cccc(C(F)(F)F)c1
4. COc1cc(NC(=O)COc2ccc(/C=C3\SC(=O)N(Cc4c5ccccc5nc5ccccc45)C3=O)cc2OC)cc(OC)c1 [Compound 12b]
5. COc1cc(NC(=O)COc2ccc(/C=C3\SC(=O)N(Cc4cccc5cc6ccccc6nc45)C3=O)cc2OC)cc(OC)c1 [Compound 13b]
6. COc1cc(/C=C2\SC(=O)N(Cc3c4ccccc4nc4ccccc34)C2=O)ccc1OCC(=O)Nc1ccccc1 [Compound 12a]

output:
1: 287 to 288 °C; 2: 288 to 290 °C; 3: 250 to 251 °C (dec.); 4: 264 to 265 °C; 5: 222 to 224 °C; 6: 260 to 262 °C

* * *

# Tested on: A549
# experiment-notes: MTT assay, A549
# Assay type: cell-based, human
# experimental-context: Homo sapiens, A549, 48 h, lung adenocarcinoma, 48 h incubation
Could you please report measured IC50 for the items listed next?

> print(dat)
                                   compound   result
1  COc1cc(NC(=O)COc2ccc(/C=C3\SC(=O)N(Cc4c5ccccc5nc5ccccc45)C3=O)cc2OC)cc(OC)c1 [Compound 12b]  34.5 µM

Okay, here is my list. What is IC50 for each of these?
1. COc1cc(/C=C2\SC(=O)N(Cc3cccc4cc5ccccc5nc34)C2=O)ccc1OCC(=O)Nc1ccccc1C(F)(F)F [Compound 13e]
2. COc1cc(/C=C2\SC(=O)N(Cc3cccc4cc5ccccc5nc34)C2=O)ccc1OCC(=O)Nc1ccccc1 [Compound 13a]
3. COc1cc(/C=C2\SC(=O)N(Cc3cccc4cc5ccccc5nc34)C2=O)ccc1OCC(=O)Nc1ccc([N+](=O)[O-])cc1 [Compound 13d]
4. COc1cc(/C=C2\SC(=O)N(Cc3c4ccccc4nc4ccccc34)C2=O)ccc1OCC(=O)Nc1ccccc1C(F)(F)F [Compound 12e]

output:
> 50 µM
> 50 µM
46.9 µM
31.1 µM

Okay, here is my list. What is IC50 for each of these?
1. COc1cc(NC(=O)COc2ccc(/C=C3\SC(=O)N(Cc4cccc5cc6ccccc6nc45)C3=O)cc2OC)cc(OC)c1 [Compound 13b]
2. COc1cc(NC(=O)COc2ccc(/C=C3\SC(=O)N(Cc4cccc5cc6ccccc6nc45)C3=O)cc2)cc(OC)c1 [Compound 8b]

output:
1. 38.9 µM
2. > 50 µM

Okay, here is my list. What is IC50 for each of these?
1. O=C(COc1ccc(/C=C2\SC(=O)N(Cc3c4ccccc4nc4ccccc34)C2=O)cc1)Nc1ccccc1C(F)(F)F [Compound 7e]
2. O=C(COc1ccc(/C=C2\SC(=O)N(Cc3c4ccccc4nc4ccccc34)C2=O)cc1)Nc1ccc([N+](=O)[O-])cc1 [Compound 7d]
3. COc1cc(/C=C2\SC(=O)N(Cc3c4ccccc4nc4ccccc34)C2=O)ccc1OCC(=O)Nc1cccc(C(F)(F)F)c1 [Compound 12f]

output:
1. > 50 µM
2. > 50 µM
3. > 50 µM
